- protocol text: chemical genetic growth profiling, strain panel (AID 1159580);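 note: tested at 20 µM; growth read once vehicle control cultures reached saturation at 30 °C; 1 = growth at the plate median or of vehicle wells; lower values mean less growth of the strain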
- condition description: S. cerevisiae deletion strains, growth OD, locus YLR371W, strain rom2, hits give low values
Hit rate of the full screen: of about 5,500 compounds, about 2,000 (36%) were called active. About 18% were inconclusive and are not listed. The list shows a part of the results.
Kindly supply the reported normalized growth values for the records listed here.
Numbers only.

Observe how each entry below is paired with its result.
INSERT INTO measurements (compound, endpoint_result) VALUES
  ('O=C(O)c1cc(=O)c2c(OCC(O)COc3cccc4oc(C(=O)O)cc(=O)c34)cccc2o1', 1.02),
  ('c1cc2c(cc1[C@H]1OC[C@H]3[C@@H]1CO[C@H]3c1ccc3c(c1)OCO3)OCO2', 0.912),
  ('CC(=O)OCC(=O)[C@@]12OC(C)(C)O[C@@H]1CC1C3C[C@H](F)C4=CC(=O)C=C[C@]4(C)[C@@]3(F)[C@@H](O)C[C@@]12C (some centres undefined)', 1.01),
  ('CCN(CC)CCOC(=O)C(Cc1cccc2ccccc12)CC1CCCO1 (centres undefined)', 1.01);

Go through the items and report each one's normalized growth.
1. CC(=O)O[C@H]1CC[C@@]2(C)C(=CCC3C2CC[C@]2(C)C(=O)CCC32)C1 (some centres undefined)
2. CC(=O)Oc1cc(C)c2c(c1C(OC(C)=O)OC(C)=O)Oc1c(c(C)c(OC(C)=O)c3c1C(OC(C)=O)OC3=O)OC2=O (centres undefined)
3. Cc1cccc(CN2CCN(C(c3ccccc3)c3ccc(Cl)cc3)CC2)c1 (centres undefined)

Reply:
1: 1.02; 2: 0.998; 3: 0.964

Go through the items and report each one's normalized growth.
1. COc1c(C2COc3cc4c(cc3C2=O)CC(O)C(C)(C)O4)ccc2c1CCC(C)(C)O2 (centres undefined)
2. COc1ccccc1-c1cc(=O)c2c(OC)cccc2o1

Reply:
1.03
0.979

====

- protocol text: chemical genetic growth profiling, strain panel (AID 1159580);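 note: tested at 20 µM; growth read once vehicle control cultures reached saturation at 30 °C; 1 = growth at the plate median or of vehicle wells; lower values mean less growth of the strain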
- condition description: S. cerevisiae deletion strains, growth OD, locus YLR330W, strain CHS5, hits give low values
The whole screen tested about 5,500 compounds, of which about 2,000 (36%) were called active. Another 18% or so got no clear call; they are omitted. Some of the results follow.
measured parameter: normalized growth
Answers are plain numbers.

Observe how each entry below is paired with its result.
INSERT INTO results (compound, measured_parameter, endpoint_result) VALUES
  ('CC(=O)O[C@H]1C[C@@H](OC(C)=O)C(C)(C)C2C[C@@H](OC(C)=O)[C@]3(C)C(CC[C@@]4(C)[C@H](c5ccoc5)C(=O)[C@H]5O[C@]543)[C@]21C (stereo partly drawn)', 'normalized growth', 1.02),
  ('COc1ccc(/C=C/c2cc(O)cc(O)c2)cc1', 'normalized growth', 0.84),
  ('COc1ccccc1N1CCNCC1', 'normalized growth', 1),
  ('CCOc1ccc2c(c1)C(C)=CC(C)(C)N2', 'normalized growth', 1),
  ('CN(Cc1cc(Br)cc(Br)c1N)C1CCCCC1', 'normalized growth', 1.02);

Go through the items and report each one's normalized growth.
1. CCCN(CCC)C(=O)C(CCC(=O)O)NC(=O)c1ccccc1 (stereo not drawn)
2. O=C(O)CCCCC1SCC2NC(=O)NC21 (stereo not drawn)
3. CN1CCc2cccc3c2C1Cc1ccc(O)c(O)c1-3 (stereo not drawn)

Reply:
1. 0.995
2. 1.01
3. 1.01

Go through the items and report each one's normalized growth.
1. C#C[C@]1(O)CCC2C3CCc4cc(O)ccc4C3CC[C@@]21C (stereo partly drawn)
2. O=C1O[C@@H](CO)[C@H](O)[C@@H](O)[C@@H]1O
3. Oc1cc(O)cc(/C=C/c2ccccc2)c1
4. O=C(O)CCCCCCCCCCCCC1C=CCC1 (stereo not drawn)
5. COc1ccc(-c2cc(C(F)F)nn2-c2ccc(S(N)(=O)=O)cc2)cc1F
6. COc1c(C(=O)O)ccc2c1CCC(C)(C)O2
7. Cc1cccc(CN2CCN(C(c3ccccc3)c3ccc(Cl)cc3)CC2)c1 (stereo not drawn)
8. COc1cc2c3cc1Oc1cc(ccc1O)OC1c4c(cc(OC)c(O)c4Oc4ccc(cc4)CC3N(C)CC2)CCN1C (stereo not drawn)

Reply:
[1.01, 1.01, 0.993, 0.822, 1.01, 1.03, 0.743, 0.987]

Go through the items and report each one's normalized growth.
1. COc1ccc(/C=C/c2cc(O)cc(O[C@@H]3O[C@H](CO)[C@@H](O)[C@H](O)[C@H]3O)c2)cc1O
2. CCN(CC)CCOC(=O)C(Cc1cccc2ccccc12)CC1CCCO1 (stereo not drawn)
3. Nc1c(Br)cc(Br)cc1CNC1CCC(O)CC1 (stereo not drawn)
4. CCOC(=O)CCCCCCCCCCCCC1C=CCC1 (stereo not drawn)
5. CC(=O)C1=C(O)C2C3c4c[nH]c5cccc(c45)CC3C(C)(C)N2C1=O (stereo not drawn)
6. COc1cc2c(cc1O)CC1c3c(cc(O)c(OC)c3-2)CCN1C (stereo not drawn)
7. CCCCC(CC)CN=C(N)NC(N)=NCCCCCCN=C(N)NC(N)=NCC(CC)CCCC (stereo not drawn)

Reply:
[1.01, 1.01, 1.01, 0.0514, 0.992, 1.01, 0.0561]
